# run-description: Solubility in gastric juice or intestinal juice model fluid (precipitation method using DMSO)
# Assay type: physicochemical
# condition-details: pH 6.8, kinetic from dmso stock, 2nd fluid for Disintegration Test of Japanese Pharmacopoeia (pH: 6.8), room temperature, read-out: Solubility (μg/mL) 2nd fluid
# Method: Solubility in Gastric Juice or Intestinal Juice Model Fluid Measurement was performed by a precipitation method using DMSO. […] Subsequently, insoluble substances in each mixture were removed by filtration, and the UV absorption of each filtrate was measured. […]
Below, each entry is listed with its recorded solubility at 24 h.

Some molecules with recorded solubility at 24 h:
COc1cc(-c2[nH]c(CCC(F)(F)F)nc2Cl)ccc1OCc1ncc(C(F)(F)F)cc1F	< 0.4 µg/mL
COc1cc(OCc2cnccc2C(F)(F)F)ccc1-c1[nH]c(-c2ccc(F)nc2)nc1Br	< 0.4 µg/mL
COc1cc(OCc2ccc(C(F)(F)F)nc2)ccc1-c1nc(-c2ccc(Cl)nc2)n(C)c1C	< 0.3 µg/mL

For reference, reported solubility at 24 h for `COc1cc(OCc2cccnc2C(F)(F)F)ccc1-c1cnc(-c2ccc(Cl)nc2)[nH]1` stands at < 0.3 µg/mL

For reference, reported solubility at 24 h for COc1cc(-c2[nH]c(C3CCC(F)(F)C3)nc2Cl)ccc1OCc1ncc(C(F)(F)F)cc1F (stereo not drawn) stands at < 0.4 µg/mL

For reference, reported solubility at 24 h for `COc1cc(-c2cnc(-c3ccc(F)nc3)[nH]2)ccc1O` stands at > 57 µg/mL

====

assay-readout: melting point

COc1cc(OCc2ccc(C(F)(F)F)nc2)ccc1-c1nc(-c2ccc(Cl)nc2)[nH]c1C [Example 49]	196 to 199 °C
COc1cc(OCc2ncc(Cl)cc2Br)ccc1-c1[nH]c(-c2ccc(F)nc2)nc1Br [Example 264]	196 to 203 °C
COc1cc(-c2nc(-c3ccc(Cl)cn3)[nH]c2C)ccc1OCc1ccc(C(F)(F)F)cn1 [Example 31]	168 to 171 °C
COc1cc(OCc2ccc(C(F)(F)F)nc2)ccc1-c1c[nH]c(-c2ccc(F)nc2)n1 [Example 1]	165 to 166 °C
COc1cc(O)ccc1-c1c[nH]c(-c2ccc(F)nc2)n1 [Example 109]	249 to 251 °C (dec.)
COc1cc(OCc2ncc(F)cc2F)ccc1-c1[nH]c(-c2ccc(Cl)nc2)nc1Br [Example 246]	190 to 193 °C

Next item in the queue.
For reference, reported melting point for COc1cc(-c2[nH]c(C3CCC(F)(F)CC3)nc2Br)ccc1OCc1ncc(C(F)(F)F)cc1F [Example 327] stands at 203 to 204 °C

====

# run-description: Solubility in gastric juice or intestinal juice model fluid (precipitation method using DMSO)
# Type: physicochemical
# condition-details: pH 6.8, kinetic from dmso stock, 2nd fluid for Disintegration Test of Japanese Pharmacopoeia (pH: 6.8), room temperature, read-out: Solubility (μg/mL) 2nd fluid
# Description: Solubility in Gastric Juice or Intestinal Juice Model Fluid Measurement was performed by a precipitation method using DMSO. […] Subsequently, insoluble substances in each mixture were removed by filtration, and the UV absorption of each filtrate was measured. […]
assay-readout: solubility at 24 h (µg/mL)

(1) COc1cc(OCc2ccc(Br)cc2F)ccc1-c1c[nH]c(C2CC2)n1
(2) COc1cc(OCc2ncc(Br)cc2F)ccc1-c1cnc(-c2ccc(F)nc2)[nH]1
(3) COc1cc(OCc2ncc(C(F)(F)F)cc2F)ccc1-c1cnc(C2CCC2)[nH]1
(4) COc1cc(O)ccc1-c1[nH]c(-c2ccc(F)nc2)nc1C
# rank by solubility at 24 h, ascending (min first) A ranking is expressed here by listing the labels in the requested order.
2, 1, 4, 3
(2: 1.2 µg/mL, 1: 2.9 µg/mL, 4: 5.2 µg/mL, 3: 42.9 µg/mL)

(I) COc1cc(O[C@H](C)c2ccc(C(F)(F)F)cc2)ccc1-c1[nH]c(-c2ccc(F)nc2)nc1Cl
(II) COc1cc(OCc2ncc(C(F)(F)F)cc2F)ccc1-c1cnc(-c2ccc(Cl)nc2)[nH]1
Min solubility at 24 h? I | II Answer by quoting the chosen item's label.
II

Values from patent US10570117B2
